Recorded GI50 values for a group of compounds are listed next.
tested on: RXF 393; assay: NCI tumour cell line growth inhibition, 48 h
Active and inactive are the calls of the source. Rule as the data show it: active = GI50 up to about 1.1 µM and inactive = higher.

COMPOUND	GI50
CC(C)CN1CN(c2ccccc2)C2(CCN(CC(C)(c3ccc(F)cc3)C3OCCO3)CC2)C1=O (stereo unspecified)	6.25 µM (inactive)
Nc1ncnc2c1ncn2COC/C=C/I	> 100 µM (inactive)
Cc1cc(C)c(/C=C(\C(=C/c2c(C)cc(C)cc2C)[N+](=O)[O-])[N+](=O)[O-])c(C)c1	20.6 µM (inactive)
O=C1Nc2ccccc2/C1=N/NC(=O)C(O)(c1ccccc1)c1ccccc1	14.6 µM (inactive)
OC12c3ccccc3C1CCCCC2N1CCCC1 (stereo unspecified)	> 100 µM (inactive)
Cn1c(=O)nc2n(-c3ccc(F)cc3)c3ccccc3nc-2c1=O	23.8 µM (inactive)

###

test system: OVCAR-3; assay: NCI tumour cell line growth inhibition, 48 h
The source made the active and inactive calls. Rule as the data show it: active = GI50 up to about 1.1 µM and inactive = higher.
Recorded GI50 values for a group of compounds are listed next.

COMPOUND	MEASURED TARGET	GI50
CCN(CC)CC(C(=O)Nc1c(C)cccc1C)/C(C)=N\NC(=O)C[N+](C)(C)C (stereo not given)	OVCAR-3	> 100 µM (inactive)
CCCNC1=Nc2ccccc2N(Cc2ccccc2)CC1	OVCAR-3	32.4 µM (inactive)
CC(=O)NC1C(OCc2ccccc2)OC(CO)C(O)C1OCC(=O)N[C@@H](C)C(=O)N[C@H](CCC(=O)NCCCCNc1c2ccccc2nc2cccc([N+](=O)[O-])c12)C(N)=O (stereo not given in full)	OVCAR-3	3.5 µM (inactive)
O=c1[nH]c(=S)[nH]c(-c2ccccc2)c1Cc1c(O)ccc2ccccc12	OVCAR-3	54.3 µM (inactive)
C=CCC1C(=O)Nc2cccc3ncn(c23)C1=O (stereo not given)	OVCAR-3	> 100 µM (inactive)
CC(C)CC1c2[nH]c3ccccc3c2C[C@H]2C(=O)NC(Cc3c[nH]c4ccccc34)C(=O)N12 (stereo not given in full)	OVCAR-3	7.74 µM (inactive)
CN1CCN(CCNc2ccc(CO)c3sc4ccccc4c(=O)c23)CC1	OVCAR-3	8.18 µM (inactive)
CN(C)/C=C(\C(=O)c1ccccc1)n1nc(-c2ccccc2)cc1-c1ccccc1	OVCAR-3	> 10 µM (inactive)
CC(C)(C)C(=O)N1CCN(C=O)C1=S	OVCAR-3	38.2 µM (inactive)
Cc1c(S(=O)(=O)N/C(=N\O)Nc2ccc(Cl)c(Cl)c2)sc2ccc(Cl)cc12	OVCAR-3	14.5 µM (inactive)

###

tested on: U-251; test: NCI tumour cell line growth inhibition, 48 h
Calls of active or inactive are those of the source. Cut-off read from the data, not from the text of the source: active = GI50 up to about 1.1 µM and inactive = higher.

COMPOUND	GI50
C[C@@H](NC1CCC[C@H]1O)c1ccccc1 (stereo partly specified)	> 100 µM (inactive)
CN(C)CCCSc1c2ccccc2nc2cc(NCC(=O)Nc3ccccc3-c3ccccc3NC(=O)CNc3ccc4c(SCCCN(C)C)c5ccccc5nc4c3)ccc12	> 100 µM (inactive)
C=C(Cl)C(C)(Cl)CCC(Cl)C(C)C (stereo unspecified)	> 100 µM (inactive)
CCN(CC)CC(C(=O)Nc1c(C)cccc1C)/C(C)=N\NC(=O)C[N+](C)(C)C (stereo unspecified)	> 100 µM (inactive)
CNC(C)C(O)c1ccc2oc3cc(=O)c4ccccc4c-3nc2c1 (stereo unspecified)	4.34 µM (inactive)
O=C1C2CCCCC2C(=O)N1n1c(-c2ccccc2)n[nH]c1=O (stereo unspecified)	> 100 µM (inactive)
CC(=O)O[C@H]1C(=O)[C@@]2(C)[C@H]([C@H](OC(=O)c3ccc([N+](=O)[O-])cc3)[C@]3(O)C[C@H](OC(=O)[C@H](O)[C@@H](NC(=O)c4ccccc4)c4ccccc4)C(C)=C1C3(C)C)[C@]1(OC(C)=O)CO[C@@H]1C[C@@H]2O	> 25 µM (inactive)
CN(C)CCCNC(=O)c1cccc2nc3ccccc3nc12	19.1 µM (inactive)
O=S(=O)(O)SCCNCCCCCC1CCCCC1	5.46 µM (inactive)
O=C1NC(N2CCCCC2)=N/C1=C\c1ccc(Cl)cc1	44.5 µM (inactive)
COC(=O)C1=C(OC(=O)c2ccccc2)C(C(=O)OC)[C@]2(O)[C@@H](C(=O)OC)[C@H]1C[C@@H](c1ccccc1)[C@@H]2C(=O)OC (stereo partly specified)	5.24 µM (inactive)
Nc1onc2c1Cc1c(noc1N)-c1ccccc1-2	57.5 µM (inactive)
CCOC(=O)COS(=O)(=O)C(F)(F)F	> 100 µM (inactive)
O=S(=O)(O)c1c(/N=N/c2c(O)ccc3ccccc23)ccc2ccccc12	> 100 µM (inactive)
CC(C)C1CO[C@]2(C)CCC(=O)N12 (stereo partly specified)	> 100 µM (inactive)
NC(=O)C(=CNC(=S)Nc1ccc(S(=O)(=O)Nc2ccccn2)cc1)C(N)=O	> 100 µM (inactive)
O=C1c2ccccc2-c2nc(-c3ccncc3)cc3c2c1nc1ccccc13	14.9 µM (inactive)
Clc1ccc(CCN2CCOCC2)c(Cl)c1	> 100 µM (inactive)
CN(C(=O)OC(C)(C)C)[C@H]1CCCC[C@H]1N1CCCC1	> 100 µM (inactive)
CC1=C(C#N)S(=O)(=O)c2c(oc(C)c2C)N1	> 100 µM (inactive)
CC(C)c1cc2c(c(O)c1O)[C@@]1(C)CCCC(C)(C)C1=C(O)C2	1.51 µM (inactive)
O=c1[nH]c(=S)[nH]c(-c2ccccc2)c1Cc1c(O)ccc2ccccc12 [CAMBINOL]	36.1 µM (inactive)
O=c1n(CC2CO2)c(=O)n(CC2CO2)c(=O)n1CC1CO1 (stereo unspecified) [TEROXIRONE]	11 µM (inactive)
CCOC1NC(=O)Oc2ccccc21 (stereo unspecified)	> 100 µM (inactive)
CC(=O)O[C@H]1CC[C@@]2(C)C(=C[C@H](c3ccc(O)cc3)[C@H]3[C@@H]4CC[C@H](OC(C)=O)[C@@]4(C)CC[C@@H]32)C1	22.1 µM (inactive)
CC(C)(C)C(=O)N1CCN(C=O)C1=S	80.7 µM (inactive)
O=C(Cc1ccccc1)N/N=C(/c1nc2ccc([N+](=O)[O-])cc2nc1O)C(O)c1ccco1 (stereo unspecified)	> 100 µM (inactive)
CCC(=O)c1ccc2[nH]c3c(C)c4c(O)cc(C)nc4c(C)c3c2c1	42.6 µM (inactive)
[N-]=[N+]=CC(=O)OC(CCl)CCl	> 100 µM (inactive)
Cc1c(Cl)cccc1NC(=O)C(=O)C1C(=O)CC(C)(C)CC1=O	> 100 µM (inactive)
C/C(=N\NC(N)=O)C(CN(C)C)C(c1ccccc1)c1c(O)c2ccccc2oc1=O (stereo unspecified)	> 100 µM (inactive)
